Origin of values: patent US8106047B2

quantity-name: melting point

Use these answered entries as a reference point.
compound="COc1ccc(-c2nnc3c4ccccc4c(Nc4ccc(NS(=O)(=O)c5cccs5)cc4)nn23)cc1 [Compound 1]" quantity_name="melting point" observed_measurement="351 to 353 °C"
compound="COc1ccc(-c2nnc3c4ccccc4c(Nc4cccc(S(=O)(=O)N(C)C)c4)nn23)cc1 [Compound 24]" quantity_name="melting point" observed_measurement="220 to 227 °C"
compound="COc1ccc(-c2nnc3c4ccccc4c(Nc4cccc(-c5nn[nH]n5)c4)nn23)cc1 [Compound T3]" quantity_name="melting point" observed_measurement="305 to 308 °C"

Now for another entry.
Lookup: melting point lookup needed for COc1ccc(-c2nnc3c4ccccc4c(Nc4cccc(NS(=O)(=O)c5ccc(NC(C)=O)cc5)c4)nn23)cc1 [Compound 18] , thanks.
Found: 328 to 331 °C

====

quantity-name: melting point (°C)

record_smiles=COc1ccc(-c2nnc3c4ccccc4c(Nc4cccc(S(=O)(=O)N5CCOCC5)c4)nn23)cc1 observed_measurement=265.4
record_smiles=COc1ccc(-c2nnc3c4ccccc4c(Nc4cccc(NS(C)(=O)=O)c4)nn23)cc1 observed_measurement=304.9
record_smiles=COc1ccc(-c2nnc3c4ccccc4c(Nc4ccc(S(=O)(=O)N5CCOCC5)cc4)nn23)cc1 observed_measurement=330

====

List of melting point values.

Lookup: melting point lookup needed for COc1ccc(-c2nnc3c4ccccc4c(Nc4ccc(NS(C)(=O)=O)cc4)nn23)cc1 [Compound 3] , thanks.
Found: 318 to 320 °C

Lookup: # iterate: CN(C)S(=O)(=O)c1cccc(Nc2nn3c(-c4ccc(Br)cc4)nnc3c3ccccc23)c1 [Compound 28]
Found: 290 to 293 °C

Lookup: # iterate: COc1ccc(Cc2nnc3c4ccccc4c(Nc4cccc(-c5nnn(C)n5)c4)nn23)cc1 [Compound T9]
Found: 262 to 264 °C

Lookup: # iterate: COc1ccc(-c2nnc3c4ccccc4c(Nc4cccc(-c5nnn(C)n5)c4)nn23)cc1 [Compound T5]
Found: 256 to 259 °C

Lookup: # iterate: COc1ccccc1-c1nnc2c3ccccc3c(Nc3cccc(NS(=O)(=O)N(C)C)c3)nn12 [Compound 32]
Found: 229 to 233 °C

Lookup: # iterate: COc1ccc(-c2nnc3c4ccccc4c(Nc4ccc(S(=O)(=O)Nc5ncccn5)cc4)nn23)cc1 [Compound 21]
Found: > 350 °C

Lookup: # iterate: COc1ccc(-c2nnc3c4ccccc4c(Nc4cccc(NS(=O)(=O)N5CCOCC5)c4)nn23)cc1 [Compound 34]
Found: 264 °C (dec.)

Lookup: # iterate: CN(C)c1ccccc1-c1nnc2c3ccccc3c(Nc3cccc(NS(=O)(=O)N(C)C)c3)nn12 [Compound 26]
Found: 235 to 239 °C

====

quantity-name: melting point

Use these answered entries as a reference point.
molecule="COc1ccc(Cc2nnc3c4ccccc4c(Nc4cccc(-c5nn[nH]n5)c4)nn23)cc1 [Compound T8]" quantity_name="melting point" observed_measurement="292 to 293 °C"
molecule="COc1ccc(-c2nnc3c4ccccc4c(Nc4cccc(S(=O)(=O)N5CCCC5)c4)nn23)cc1 [Compound 29]" quantity_name="melting point" observed_measurement="292 to 295 °C"
molecule="COc1ccc(-c2nnc3c4ccccc4c(Nc4cccc(NS(=O)(=O)Cc5ccccc5)c4)nn23)cc1 [Compound 15]" quantity_name="melting point" observed_measurement="289 to 292 °C"

Now for another entry.
Lookup: melting point lookup needed for COc1ccc(-c2nnc3c4ccccc4c(Nc4cccc(NS(=O)(=O)c5ccc(OC)cc5)c4)nn23)cc1 [Compound 10] , thanks.
Found: 328 to 331 °C (dec.)
